- Tested on: H1 or H9 human embryonic stem cells
- assayInfo: Activin A bioassay: differentiation of human embryonic stem cells to definitive endoderm, cell number and SOX17 intensity by high content analysis (96-well, four days)
- Format: cell-based
- testParameters: supernatant concentration 10x, assay dilution 1:20; control = R&D Sys Activin A 100 ng/ml on same plate
Exercise: state measured Sox 17 Intensity % of control for each of the molecules provided.

- molecule: "ACTN19: activin A variant peptide, SEQ ID 20 (protein) GLECDGKVNLCCKKQDFVSFKDIGWNDWIIAPSGYHANKCGGKCPSHIAGTSGSSLSFHSTVINHYRMRGHSPFANMGSCCIPTKLRPMSMLYYDDGQNIIKKDIQNMIVEECGCS"
  recordedResult: "0.1%"
- molecule: "ACTN22: activin A variant peptide, SEQ ID 23 (protein) GLECDGKVNLCCKKQDFVSFKDIGWNDWIIAPSGYHANRCDGLCPSHIAGTSGSSLSFHSTVINHYRMRGHSPFALMGACCIPTKLRPMSMLYYDDGQNIIKKDIQNMIVEECGCS"
  recordedResult: "1.3%"

Give me Sox 17 Intensity % of control for each of these molecules, listed below.
1. ACTN92: activin A variant peptide, SEQ ID 93 (protein) GLECDGKVNICCKKQSFGQAKDIGWNDWIIAPSGYHGGGCSGECPSHIAGTSGSSLSFHSTVINHYRMRGHSPFANLKSCCSPTKLRPMSMLYYDDGQNIIKKDIQGMKVEECGCT
2. ACTN50: activin A variant peptide, SEQ ID 51 (protein) GLECDGKVNICCKKQLFGRTKDIGWNDWIIAPSGYHGGGCSGECPSHIAGTSGSSLSFHSTVINHYRMRGHSPVANLKSCCSPTKLRPMSMLYYDDGQNIIKKDIQNMKVEECGCT

1: 2.5%; 2: 12.2%

Give me Sox 17 Intensity % of control for each of these molecules, listed below.
1. ACTN73: activin A variant peptide, SEQ ID 74 (protein) GLECDGKVNICCKKQSFGQAKDIGWNDWIIAPSGYHGGGCSGECPSHIAGTSGSSLSFHSTVINHYRMRGHSPFANLKSCCSPTKLRPMSMLYYDDGQNIIKKDIQGMVVEECGCT
2. ACTN67: activin A variant peptide, SEQ ID 68 (protein) GLECDGKVNICCKKQSFGQTKDIGWNDWIIAPSGYHGGGCSGECPSHIAGTSGSSLSFHSTVINHYRMRGHSPWANLKSCCSPTKLRPMSMLYYDDGQNIIKKDIQNMKVEECGCT
3. ACTN59: activin A variant peptide, SEQ ID 60 (protein) GLECDGKVNICCKKQLFGQTKDIGWNDWIIAPSGYHGGGCTGECPSHIAGTSGSSLSFHSTVINHYRMRGHSPNANLKSCCAPTKLRPMSMLYYDDGQNIIKKDIQGMKVEECGCV
4. ACTN34: activin A variant peptide, SEQ ID 35 (protein) GLECDGKVNYCCKKQLFVSFKDIGWNDWIIAPSGYHANHCTGKCPSHIAGTSGSSLSFHSTVINHYRMRGHSPFSDLGSCCVPTKLRPMSMLYYDDGQNIIKKDIQNMIVEECGCS
5. ACTN11: activin A variant peptide, SEQ ID 12 (protein) GLECDGKVNLCCKKQLFVSFKDIGWNDWIIAPSGYHANHCSGLCPSHIAGTSGSSLSFHSTVINHYRMRGHSPFAQMGACCIPTKLRPMSMLYYDDGQNIIKKDIQNMIVEECGCS
6. ACTN40: activin A variant peptide, SEQ ID 41 (protein) GLECDGKVNLCCKKQLFVSFKDIGWNDWIIAPSGYHANHCAGLCPSHIAGTSGSSLSFHSTVINHYRMRGHSPFSNMGSCCVPTKLRPMSMLYYDDGQNIIKKDIQNMIVEECGCS
7. ACTN60: activin A variant peptide, SEQ ID 61 (protein) GLECDGKVNICCKKQSFGQTKDIGWNDWIIAPSGYHGGGCSGECPSHIAGTSGSSLSFHSTVINHYRMRGHSPWANLKSCCAPTKLRPMSMLYYDDGQNIIKKDIQNMVVEECGCV
8. ACTN42: activin A variant peptide, SEQ ID 43 (protein) GLECDGKVNYCCKKQDFVSFKDIGWNDWIIAPSGYHANKCSGKCPSHIAGTSGSSLSFHSTVINHYRMRGHSPFSDMGSCCIPTKLRPMSMLYYDDGQNIIKKDIQNMIVEECGCS

3.7%
2.0%
7.1%
257.4%
156.8%
85.6%
2.4%
13.8%

# Sox 17 Intensity % of control of ACTN44: activin A variant peptide, SEQ ID 45 (protein) GLECDGKVNLCCKKQNFVSFKDIGWNDWIIAPSGYHANECSGKCPSHIAGTSGSSLSFHSTVINHYRMRGHSPFSDMGACCIPTKLRPMSMLYYDDGQNIIKKDIQNMIVEECGCS = 3.5%
